B1: TMEM120A (parent)
chain: YQSFVQFLQYYYQSGCLYRLRALG

variants of: B1; assay: protein stability index of a GFP-peptide fusion (GPS, HEK-293T) (PSI 1-6); higher = more stable; settings: c terminus: a fixed tail appended;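 also: lentivirally expressed fusions sorted by FACS into six bins by GFP to DsRed ratio, PSI derived from sequencing read proportions per bin multiplied by bin number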
Answer N if protein stability index is under 2, and Y if it is 2 or more.

Reference set (5 entries):
1. F4S = N
2. F7H = N
3. Q6E = N
4. Q13S = Y
5. S3H = Y

-- ask Please tell me: is the variant "A22L" at or over 2 in terms of protein stability index?
-- reply Y

-- ask Please tell me: is the variant "Q2I" at or over 2 in terms of protein stability index?
-- reply Y
